The values you see were collected from patent US9730944B2.

tested on: poliovirus (PV type 2); test: microbe, parasite or virus in culture; format: cell-based; details: Enterovirus C, HeLa, read-out: PV-2 EC50
readout-name: EC50

>>> value_reported("Nc1nc(N2CCN(C(=O)COc3ccc(Cl)cc3)CC2)c2nc(C3CC3)sc2n1")
"1.21 µg/mL"
>>> value_reported("O=C(COc1ccc(Cl)cc1)N1CCN(c2ncnc3sc(-c4ccc(F)cc4)cc23)CC1")
"1.28 µg/mL"
>>> value_reported("Nc1nc(N2CCN(C(=O)COc3ccc(Cl)cc3)CC2)c2nc(C3CC3)oc2n1")
"≥ 50 µg/mL"
>>> value_reported("CCCCc1nc(N2CCN(C(=O)COc3ccc(Cl)cc3)CC2)c2cc(-c3ccc(F)cc3)sc2n1")
"≥ 50 µg/mL"
>>> value_reported("Nc1nc(N2CCN(C(=O)COc3ccc(Cl)cc3)CC2)c2nc(CCc3ccccc3)oc2n1")
"1.15 µg/mL"
>>> value_reported("O=C(COc1ccc(Cl)cc1)N1CCN(c2ncnc3oc(-c4ccc(F)cc4)nc23)CC1")
"≥ 50 µg/mL"
>>> value_reported("CC(c1ccc(F)cc1)c1nc2c(N3CCN(C(=O)COc4ccc(Cl)cc4)CC3)nc(N)nc2s1 (stereo not shown)")
"≥ 50 µg/mL"
>>> value_reported("Cc1nc(N2CCN(C(=O)COc3ccc(Cl)cc3)CC2)c2nc(-c3ccc(F)cc3)oc2n1")
"≥ 50 µg/mL"
>>> value_reported("NC(=O)c1nc(N2CCN(C(=O)COc3ccc(Cl)cc3)CC2)c2cc(-c3ccc(F)cc3)sc2n1")
"≥ 50 µg/mL"
>>> value_reported("CC(C)S(=O)(=O)n1c(N)nc2ccc(/C(=N/O)c3ccccc3)cc21")
"0.041 µg/mL"
>>> value_reported("O=C(COc1ccc(Cl)cc1)N1CCN(c2nc(-c3ccccc3)nc3sc(-c4ccc(F)cc4)cc23)CC1")
"≥ 50 µg/mL"
>>> value_reported("Cc1cccc(NC(=O)N2CCN(c3nc(C(N)=O)nc4sc(-c5ccc(F)cc5)cc34)CC2)c1")
"≥ 50 µg/mL"
>>> value_reported("C[C@@]1(O)[C@H](O)[C@@H](CO)O[C@H]1n1ccc(N)nc1=O")
"7.27 µg/mL"
>>> value_reported("Cc1nc(N2CCN(C(=O)COc3ccc(Cl)cc3)CC2)c2nc(-c3ccc(F)cc3)sc2n1")
"≥ 50 µg/mL"
>>> value_reported("Nc1nc(N2CCN(C(=O)COc3ccc(Cl)cc3)CC2)c2nc(CCOc3ccc(F)cc3)sc2n1")
"0.36 µg/mL"
>>> value_reported("Nc1nc(N2CCN(C(=O)COc3ccc(Cl)cc3)CC2)c2nc(CCc3ccc(F)cc3)sc2n1")
"0.13 µg/mL"
>>> value_reported("Cc1cccc(OCC(=O)N2CCN(c3nc(N)nc4sc(CCc5ccc(F)cc5)nc34)CC2)c1")
"9.73 µg/mL"
>>> value_reported("Nc1nc(N2CCN(C(=O)COc3ccc(Cl)cc3)CC2)c2cc(-c3ccc(F)cc3)sc2n1")
"0.051 µg/mL"
>>> value_reported("CCOC(=O)c1nc(N2CCN(C(=O)Nc3cccc(C)c3)CC2)c2cc(-c3ccc(F)cc3)sc2n1")
"≥ 50 µg/mL"
>>> value_reported("Nc1nc(N2CCN(C(=O)COc3ccc(Cl)cc3Cl)CC2)c2nc(CCc3ccc(F)cc3)sc2n1")
"≥ 50 µg/mL"
>>> value_reported("CCOC(=O)c1nc(N2CCN(C(=O)COc3ccc(Cl)cc3)CC2)c2cc(-c3ccc(F)cc3)sc2n1")
"≥ 50 µg/mL"
>>> value_reported("COCCN1CCN(c2nc(N)nc3oc(-c4ccc(F)cc4)nc23)CC1")
"> 50 µg/mL"
>>> value_reported("Nc1nc(N2CCN(C(=O)COc3ccc(Cl)cc3)CC2)c2nc(Cc3ccc(F)cc3)sc2n1")
"0.039 µg/mL"
>>> value_reported("NC(=O)Cc1nc(N2CCN(C(=O)COc3ccc(Cl)cc3)CC2)c2cc(-c3ccc(F)cc3)sc2n1")
"≥ 50 µg/mL"
>>> value_reported("O=C(COc1ccc(Cl)cc1)N1CCN(c2ncnc3oc(Cc4ccc(F)cc4)nc23)CC1")
"≥ 50 µg/mL"
>>> value_reported("CCOC(=O)Cc1nc(N2CCN(C(=O)COc3ccc(Cl)cc3)CC2)c2cc(-c3ccc(F)cc3)sc2n1")
"≥ 50 µg/mL"
>>> value_reported("CCCCCc1nc2c(N3CCN(C(=O)COc4ccc(Cl)cc4)CC3)nc(N)nc2o1")
"0.36 µg/mL"
>>> value_reported("CC(=O)N1CCN(c2nc(N)nc3oc(-c4ccc(F)cc4)nc23)CC1")
"≥ 50 µg/mL"
>>> value_reported("Nc1nc(N2CCN(C(=O)COc3ccc(F)cc3)CC2)c2nc(CCc3ccc(F)cc3)sc2n1")
"0.23 µg/mL"
>>> value_reported("Cc1nc(N2CCN(C(=O)COc3ccc(Cl)cc3)CC2)c2nc(Cc3ccc(F)cc3)oc2n1")
"≥ 50 µg/mL"
>>> value_reported("Nc1nc(N2CCN(C(=O)CCOc3ccc(F)cc3)CC2)c2nc(CCc3ccc(F)cc3)sc2n1")
"≥ 50 µg/mL"
